A collection of molecules and their measured pIC50
Molecular target: UniProt:Q05209
Assay: Counter-screen phosphatase assay PTP-PEST
Type: biochemical
Conditions: read-out: PEST IC50
Kindly note that pIC50 refers to -log10 of the concentration in mol/L and answer with the value alone.

{"molecule": "Cc1ccc2cc([C@@H](c3nnnn3C3CCCC3)N3CCCCC3)c(=O)[nH]c2c1 [compound 44]", "pIC50": 4.16}
{"molecule": "COc1ccc(N2CCN([C@H](c3cc4cc(C)ccc4[nH]c3=O)c3nnnn3C3CCCC3)CC2)cc1 [compound 42]", "pIC50": 4.39}
{"molecule": "Cc1ccc2[nH]c(=O)c([C@H](c3nnnn3C3CCCC3)N3CCN(c4nc5ccccc5[nH]4)CC3)cc2c1 [compound 38]", "pIC50": 4.41}
{"molecule": "Cc1ccc2cc(C(c3nnnn3C3CCCC3)N3CCN(C(c4ccccc4)c4ccccc4)CC3)c(=O)[nH]c2c1 (stereo not drawn) [compound 5]", "pIC50": 5.02}
{"molecule": "O=c1[nH]c2ccccc2cc1[C@@H](c1nnnn1C1CCCC1)N1CCc2ccccc2C1 [compound 37]", "pIC50": 4.50}

Please give the documented pIC50 of Cc1ccc2[nH]c(=O)c([C@@H](c3nnnn3C3CCCC3)N(CCc3ccccc3)Cc3ccccc3)cc2c1 [compound 16]
4.71

Please give the documented pIC50 of CCC(C)(C)n1nnnc1[C@@H](c1cc2cccc(C)c2[nH]c1=O)N1CCCC2(CCCCC2)C1 [compound 18]
4.89

Please give the documented pIC50 of Cc1ccc2cc([C@H](c3nnnn3CC3CCCC3)N3CCCC4(CCCCC4)C3)c(=O)[nH]c2c1 [compound 23]
4.42

Please give the documented pIC50 of CCC(C)(C)n1nnnc1[C@@H](c1cc2cc(C)cc(C)c2[nH]c1=O)N1CCCC2(CCCCC2)C1 [compound 12]
4.70

Please give the documented pIC50 of COc1ccc(CN(Cc2ccccc2)[C@@H](c2cc3cc(C)ccc3[nH]c2=O)c2nnnn2C2CCCC2)cc1 [compound 15]
4.82

Please give the documented pIC50 of Cc1cc(C)c2[nH]c(=O)c(C(c3nnnn3C3CCCC3)N3CCN(C(c4ccccc4)c4ccccc4)CC3)cc2c1 (stereo not drawn) [compound 8]
5.02

---

A collection of compounds and their measured IC50
Molecular target: LYP/PTPN22 (Homo sapiens, UniProt Q9Y2R2)
Construct: catalytic domains of LYP (aa 2-309) and PTP-PEST (aa 2-323, PEST); 6xHis (N, cleaved yes); made in house; host or cells: E. coli BL21
Sequence (Q9Y2R2 2-309): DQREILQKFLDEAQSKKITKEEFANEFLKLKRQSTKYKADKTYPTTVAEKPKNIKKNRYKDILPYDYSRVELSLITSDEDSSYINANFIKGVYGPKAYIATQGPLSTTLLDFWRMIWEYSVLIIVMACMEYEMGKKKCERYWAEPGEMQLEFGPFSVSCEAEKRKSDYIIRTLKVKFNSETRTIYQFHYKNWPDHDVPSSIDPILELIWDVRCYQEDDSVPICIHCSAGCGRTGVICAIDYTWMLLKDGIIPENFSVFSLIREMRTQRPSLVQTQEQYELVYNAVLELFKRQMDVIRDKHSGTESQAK
Experiment: biochemical
Conditions: LYP IC50, Table IV, analogues of E3P13
Please give a number only; it is taken to be in µM.

{"compound": "Cc1ccc2cc([C@H](c3nnnn3Cc3ccccc3)N3CCCC4(CCCCC4)C3)c(=O)[nH]c2c1C", "IC50 [µM]": 18.1}
{"compound": "CCC(C)(C)n1nnnc1[C@@H](c1cc2cccc(C)c2[nH]c1=O)N1CCCC2(CCCCC2)C1", "IC50 [µM]": 13.4}
{"compound": "Cc1ccc2cc([C@@H](c3nnnn3C3CCCC3)N3CCCCC3)c(=O)[nH]c2c1 [compound 44]", "IC50 [µM]": 32.5}

Please give the documented IC50 of "Cc1ccc2[nH]c(=O)c([C@@H](c3nnnn3Cc3ccccc3)N3CCCC4(CCCCC4)C3)cc2c1"
11.1

Please give the documented IC50 of "Cc1ccc2cc([C@H](c3nnnn3CC3CCCC3)N3CCCC4(CCCCC4)C3)c(=O)[nH]c2c1"
17.1

---

Biological target: PTP-PEST (Homo sapiens, UniProt Q05209)
Sequence (Q05209 2-323, species assumed): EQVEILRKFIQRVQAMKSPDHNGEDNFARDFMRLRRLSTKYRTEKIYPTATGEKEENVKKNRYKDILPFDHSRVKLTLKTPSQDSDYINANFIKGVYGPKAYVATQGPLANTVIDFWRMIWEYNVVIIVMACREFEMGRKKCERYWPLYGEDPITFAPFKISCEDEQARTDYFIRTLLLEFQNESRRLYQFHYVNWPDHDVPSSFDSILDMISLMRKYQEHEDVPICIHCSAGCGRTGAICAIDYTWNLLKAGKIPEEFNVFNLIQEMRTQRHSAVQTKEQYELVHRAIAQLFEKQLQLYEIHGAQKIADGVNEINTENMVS
Experiment: Counter-screen phosphatase assay PTP-PEST
Format: biochemical
Conditions: read-out: PEST IC50
A collection of molecules and their measured pIC50
Kindly note that pIC50 refers to -log10 of the concentration in mol/L and answer with the value alone.

{"molecule": "Cc1ccc2[nH]c(=O)c([C@H](c3nnnn3C3CCCC3)N3CCC[C@@H](C)C3)cc2c1 [compound 24]", "property": "pIC50", "observed": 4.58}

Please give the documented pIC50 of Cc1cc(C)c2cc([C@H](c3nnnn3C(C)(C)C)N3CCCC4(CCCCC4)C3)c(=O)[nH]c2c1 [compound 28]
4.58

Please give the documented pIC50 of Cc1ccc2cc([C@H](c3nnnn3Cc3ccccc3)N3CCCC4(CCCCC4)C3)c(=O)[nH]c2c1C [compound 25]
4.75

Please give the documented pIC50 of COc1ccc2cc([C@H](c3nnnn3Cc3ccccc3)N3CCCC4(CCCCC4)C3)c(=O)[nH]c2c1 [compound 27]
4.86

Please give the documented pIC50 of Cc1ccc2cc(C(c3nnnn3C3CCCC3)N(Cc3ccccc3)Cc3ccc(C(C)C)cc3)c(=O)[nH]c2c1 (stereo not shown) [compound 4]
5.00

Please give the documented pIC50 of Cc1ccc2cc(C(c3nnnn3C3CCCC3)N3CCN(C(c4ccccc4)c4ccccc4)CC3)c(=O)[nH]c2c1C (stereo not shown) [compound 6]
5.01

---

Target: LYP/PTPN22 (Homo sapiens)
Construct: catalytic domains of LYP (aa 2-309) and PTP-PEST (aa 2-323, PEST); 6xHis (N, cleaved yes); made in house; host or cells: E. coli BL21
Assay: biochemical
A collection of compounds and their measured PEST_LYP
Reply with just the number.

These solved cases illustrate the format of a correct answer.
{"compound": "Cc1ccc2cc(C(c3nnnn3C3CCCC3)N(Cc3ccccc3)Cc3ccc(C(C)C)cc3)c(=O)[nH]c2c1 (stereo not shown) [compound 4]", "target_under_test": "LYP/PTPN22 (Homo sapiens)", "observed": 1.31}
{"compound": "COc1ccc(N2CCN([C@H](c3cc4cc(C)ccc4[nH]c3=O)c3nnnn3C3CCCC3)CC2)cc1 [compound 42]", "target_under_test": "LYP/PTPN22 (Homo sapiens)", "observed": 1.27}
{"compound": "Cc1ccc2cc(C(c3nnnn3C3CCCC3)N3CCCC4(CCCCC4)C3)c(=O)[nH]c2c1 (stereo not shown) [compound 21]", "target_under_test": "LYP/PTPN22 (Homo sapiens)", "observed": 1.43}
{"compound": "Cc1cc(C)c2[nH]c(=O)c(C(c3nnnn3C3CCCC3)N3CCCC4(CCCCC4)C3)cc2c1 (stereo not shown) [compound 30]", "target_under_test": "LYP/PTPN22 (Homo sapiens)", "observed": 1.53}
{"compound": "Cc1ccc2[nH]c(=O)c([C@H](c3nnnn3C3CCCC3)N3CCN(c4ccccc4)CC3)cc2c1 [compound 47]", "target_under_test": "LYP/PTPN22 (Homo sapiens)", "observed": 0.89}
{"compound": "Cc1cc(C)c2[nH]c(=O)c(C(c3nnnn3C3CCCC3)N3CCN(C(c4ccccc4)c4ccccc4)CC3)cc2c1 (stereo not shown) [compound 8]", "target_under_test": "LYP/PTPN22 (Homo sapiens)", "observed": 0.98}

// moving on: another record for PEST_LYP
Please give the documented PEST_LYP of Cc1cccc2cc(C(c3nnnn3C3CCCC3)N3CCCC4(CCCCC4)C3)c(=O)[nH]c12 (stereo not shown) [compound 22]
1.34

---

Molecular target: PTP-PEST (Homo sapiens)
Assay: Counter-screen phosphatase assay PTP-PEST
Format: biochemical
Settings: read-out: PEST IC50
A collection of compounds and their measured pIC50
Kindly note that pIC50 refers to -log10 of the concentration in mol/L and answer with the value alone.

{"compound": "Cc1cc(C)c2cc(C(c3nnnn3C3CCCC3)N3CCCC4(CCCCC4)C3)c(=O)[nH]c2c1 (stereo not drawn)", "target_under_test": "PTP-PEST (Homo sapiens)", "pIC50": 4.80}

Please give the documented pIC50 of Cc1ccc2[nH]c(=O)c(C(c3nnnn3C3CCCC3)N(Cc3ccccc3)Cc3ccc(C(C)C)cc3)cc2c1 (stereo not drawn)
5.26

Please give the documented pIC50 of Cc1cccc2cc(C(c3nnnn3C3CCCC3)N3CCN(C(c4ccccc4)c4ccccc4)CC3)c(=O)[nH]c12 (stereo not drawn)
5.00

Please give the documented pIC50 of Cc1cc(C)c2[nH]c(=O)c(C(c3nnnn3C3CCCC3)N3CCCC4(CCCCC4)C3)cc2c1 (stereo not drawn)
4.51
